assay: yeast display, Sf9 membrane polyspecificity reagent, FACS + sequencing; frameworks hold sequencing errors

{"polymer_sequence": "QVQLVESGGGLVQAGGSLRLSCAASGRIFSNNDMGWYRQAAGKERELVAAISKNGGRTYYADSVKGRFTISRDNAKNTVYLQMNSLKPEDTAVYYCAAPVKPVTGYYPYDYWGQGTQVTVSS", "polyreactivity (PSR sort gate)": "high polyreactivity"}
{"polymer_sequence": "QVQLVESGGGLVQAGGSLRLSSAASGNIIKYYAMGCYRQEPGKERELVAAINWSGGSTYYADSVKGRFTISRDNAKNTVYLQMNSLKPEDTAVYYCNVFSSGYYLFDYWGQGTQVTVSS", "polyreactivity (PSR sort gate)": "high polyreactivity"}
{"polymer_sequence": "QVQLVESGGGLVQAGGSLRLSCAASGFILRAYAMGWYRQAPGKEREFVAAITRRGGSTYYADSVKGRFTISRDNAKNTVYLQMNSLKPEDTAVYYCAAKFFSSPHNLGYWGQGTQVTVSS", "polyreactivity (PSR sort gate)": "high polyreactivity"}

Source: the nanobody polyreactivity screen of Harvey et al. (2022)
